- experimental.target: sGC (Rattus norvegicus, UniProt P20595)
- Construct: in rat aortic smooth muscle cells; endogenous in cells; host or cells: primary rat aortic smooth muscle cells
- assay.notes: P-VASP formation in rat aortic smooth muscle cells
- Format: cell-based
- setup.conditions: Control (no ODQ)
observation.type: EC50 (µM)
Express the result in µM but write the number alone.

Cc1cc(-c2ccc(OC(F)(F)F)cc2)ccc1COc1ccccc1-c1cccc(-n2ncc(C(=O)O)c2C(F)(F)F)n1 [GSK2181236A] = 0.0127

Next, consider the following compound.
Could you share which EC50 value was measured for COC(=O)Nc1c(N)nc(-c2nn(Cc3ccccc3F)c3ncccc23)nc1N [BAY 60-4552] ?
0.353

###

- experimental.target: rat sGC (Rattus norvegicus, UniProt P20595)
- Sequence (P20595 1-619): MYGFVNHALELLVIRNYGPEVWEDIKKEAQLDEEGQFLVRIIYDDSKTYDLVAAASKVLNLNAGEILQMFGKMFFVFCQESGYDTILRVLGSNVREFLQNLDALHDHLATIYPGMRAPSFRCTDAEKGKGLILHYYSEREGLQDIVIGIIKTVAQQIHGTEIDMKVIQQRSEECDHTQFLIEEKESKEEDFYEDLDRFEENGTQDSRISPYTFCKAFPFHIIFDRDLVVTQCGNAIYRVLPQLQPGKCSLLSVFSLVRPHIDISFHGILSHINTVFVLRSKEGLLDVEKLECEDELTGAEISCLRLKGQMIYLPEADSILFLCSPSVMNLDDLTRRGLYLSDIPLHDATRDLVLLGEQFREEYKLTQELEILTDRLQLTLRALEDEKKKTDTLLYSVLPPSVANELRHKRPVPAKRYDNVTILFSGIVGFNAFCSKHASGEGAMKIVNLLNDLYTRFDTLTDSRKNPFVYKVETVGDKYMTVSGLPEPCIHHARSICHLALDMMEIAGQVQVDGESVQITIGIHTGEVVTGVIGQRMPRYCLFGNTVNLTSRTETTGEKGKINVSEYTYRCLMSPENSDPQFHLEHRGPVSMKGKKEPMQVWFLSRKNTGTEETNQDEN
- Sequence (P19686 1-690 partner): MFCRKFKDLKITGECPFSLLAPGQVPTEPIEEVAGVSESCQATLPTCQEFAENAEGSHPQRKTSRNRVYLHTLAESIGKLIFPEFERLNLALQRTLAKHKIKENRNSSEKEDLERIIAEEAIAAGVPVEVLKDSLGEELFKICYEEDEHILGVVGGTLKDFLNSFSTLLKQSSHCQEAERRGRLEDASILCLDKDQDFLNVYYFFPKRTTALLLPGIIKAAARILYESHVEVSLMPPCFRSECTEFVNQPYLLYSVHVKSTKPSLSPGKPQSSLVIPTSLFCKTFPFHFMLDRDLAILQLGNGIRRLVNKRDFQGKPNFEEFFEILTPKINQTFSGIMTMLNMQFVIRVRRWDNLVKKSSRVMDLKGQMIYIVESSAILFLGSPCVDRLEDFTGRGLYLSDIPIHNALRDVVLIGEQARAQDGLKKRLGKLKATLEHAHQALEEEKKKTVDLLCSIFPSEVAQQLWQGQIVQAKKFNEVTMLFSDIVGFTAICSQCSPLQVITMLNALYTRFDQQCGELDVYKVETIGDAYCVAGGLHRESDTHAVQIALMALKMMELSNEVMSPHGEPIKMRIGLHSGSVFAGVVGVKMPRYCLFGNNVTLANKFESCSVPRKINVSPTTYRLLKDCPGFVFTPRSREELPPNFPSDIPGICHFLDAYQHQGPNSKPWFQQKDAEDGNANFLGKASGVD
- assay.notes: primary cell-free rat sGC enzyme assay (cGMP formation)
- setup.conditions: data not shown
observation.type: pEC50
Lab note — pEC50 values are minus log10 of concentrations in M.

Could you share which pEC50 value was measured for Cc1cc(-c2ccc(OC(F)(F)F)cc2)ccc1COc1ccccc1-c1cccc(-n2ncc(C(=O)O)c2C(F)(F)F)n1 [GSK2181236A] ?
7.57

###

- experimental.target: OATP1B1 (Homo sapiens)
- Sequence (Q9Y6L6 whole entry): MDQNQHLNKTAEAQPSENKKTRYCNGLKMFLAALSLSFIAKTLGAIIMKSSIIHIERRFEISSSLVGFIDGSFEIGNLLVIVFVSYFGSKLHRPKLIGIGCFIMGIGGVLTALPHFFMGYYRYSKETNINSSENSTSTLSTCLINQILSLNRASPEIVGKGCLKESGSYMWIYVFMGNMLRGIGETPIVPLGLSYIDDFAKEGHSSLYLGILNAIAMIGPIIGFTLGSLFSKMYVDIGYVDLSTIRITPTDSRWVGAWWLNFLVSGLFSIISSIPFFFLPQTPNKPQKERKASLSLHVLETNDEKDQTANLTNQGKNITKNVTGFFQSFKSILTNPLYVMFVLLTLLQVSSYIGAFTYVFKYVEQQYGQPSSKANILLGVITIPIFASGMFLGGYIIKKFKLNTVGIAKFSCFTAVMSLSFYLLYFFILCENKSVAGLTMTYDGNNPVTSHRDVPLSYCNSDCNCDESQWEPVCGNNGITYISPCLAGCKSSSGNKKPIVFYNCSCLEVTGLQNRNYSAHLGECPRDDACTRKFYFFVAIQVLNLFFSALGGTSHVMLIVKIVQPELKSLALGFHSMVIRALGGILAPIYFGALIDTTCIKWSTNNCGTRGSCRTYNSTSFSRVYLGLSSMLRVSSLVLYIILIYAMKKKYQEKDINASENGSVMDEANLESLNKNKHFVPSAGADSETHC
- assay.notes: in vitro selectivity profile: OATP1B1 transporter activity
- setup.conditions: read-out: IC50, inhibition of transporter activity
observation.type: IC50 (nM)
Express the result in nM but write the number alone.

Recorded IC50 for Cc1cc(-c2ccc(OC(F)(F)F)cc2)ccc1COc1ccccc1-c1cccc(-n2ncc(C(=O)O)c2C(F)(F)F)n1 [GSK2181236A] with OATP1B1 (Homo sapiens), please?
300
